Where these numbers come from: PubChem BioAssay (NCI)

System: MDA-MB-435 melanoma
Test: NCI-60 one-dose screen, 48 h
Conditions: 10 µM unless noted
Procedure: Growth inhibition of the MDA-MB-435 human Melanoma tumor cell line is measured as a screen for anti-cancer activity. Cells are grown in 96 well plates and exposed to the test compound for 48 hours. Compounds are tested at a single concentration, which is 10^-5 M for most compounds. The reported endpoint is percent growth (GI% or GIPRCNT), where numbers from 0 - 100% represent growth inhibition, and numbers from -100% - 0 represent cell death. […]
Compounds without any hit were thinned out: in the full panel of roughly 83,000, 20% have a hit. Calls of active or inactive are those of the source. How the source made its calls: active means growth percent below 10; inactive means the rest.
# valid calls are active, inactive; nothing else

Look over these answered cases.
{"Line notation": "CC(=O)/C(N=Nc1ccc2oc(=O)ccc2c1)=C(\\C)O", "Study system": "MDA-MB-435 melanoma", "Group": "inactive"}
{"Line notation": "C#C[C@]1(O)CC[C@H]2[C@@H]3CC=C4c5sc(N(C)c6ccccc6)nc5CC[C@]4(C)[C@H]3CC[C@@]21C", "Study system": "MDA-MB-435 melanoma", "Group": "inactive"}
{"Line notation": "CC(C)(C)OC(=O)NCc1ccc(CNc2c([N+](=O)[O-])cnc3ccccc23)cc1", "Study system": "MDA-MB-435 melanoma", "Group": "inactive"}
{"Line notation": "O=C(Nc1cccc(C(F)(F)F)c1)N1CCN(c2cc(-c3cn(-c4ccccc4)nc3-c3cccc(O)c3)ccn2)CC1", "Study system": "MDA-MB-435 melanoma", "Group": "inactive"}

What classification did `Cc1ccc2c(n1)C(=O)C(Cl)=C(Nc1ccccc1C(=O)OC(C)(C)C)C2=O` end up with in this test?
inactive

Assay outcome for `CC[C@H](CC[C@@H](C)[C@H]1CC[C@H]2[C@@H]3CC(=O)C4=CC(=O)/C(=C/c5ccc([N+](=O)[O-])cc5)C[C@]4(C)[C@H]3CC[C@]12C)C(C)C` : what was it?
inactive

Please share the test call associated with `CN1CCN(c2ccc(Nc3nc(NCCNC(=O)c4ccc(F)cc4)c4sccc4n3)cc2)CC1` .
inactive

Give the logged outcome of this assay for the following molecule: `COc1ccc2c(c1)c(-c1nc(N)nnc1-c1c[nH]c3ccccc13)cn2C`
active

----------
System: MOLT-4 leukemia
Test: NCI-60 one-dose screen, 48 h (100 = growth as untreated, 0 = no growth, -100 = all killed)
Conditions: 10 µM unless noted
Compounds without any hit were thinned out: in the full panel of roughly 83,000, 20% have a hit.
Metric name: growth (%)
One number for each entry, in %.

Worked set:
{"Line notation": "COc1ccc(NC(=O)CCCCCCNC(=O)C(O)(O)C(F)(F)F)cc1", "growth, %": 21}
{"Line notation": "O=C(CCCCCCNC(=O)C(O)(O)C(F)(F)F)Nc1ccc(-c2ccccc2)cc1", "growth, %": 14.1}
{"Line notation": "CC1(C)CC[C@]2(C(=O)NCCCCCCN(CCCN)CCCN)CC[C@]3(C)C(=CC[C@@H]4[C@@]5(C)CC[C@H](O)C(C)(C)[C@@H]5CC[C@]43C)[C@@H]2C1", "growth, %": 102}

Need growth, item `NC1CC2(CCN(c3cnc(C(=O)Nc4cc(F)cc5cccnc45)cn3)CC2)C1`
40.8

----------
Tested on: SR leukemia
Test: NCI-60 one-dose screen, 48 h
Conditions: 10 µM unless noted
This is part of a sample that, as a whole, favours compounds with a hit. Of some 83,000 tested, about 20% had one in any assay. Calls of active or inactive are those of the source. How the source made its calls: active means growth percent below 10; inactive means the rest.
Thanks in advance; please answer with one of these: active, inactive

{"Compound": "Cc1cc(=O)oc2cc(OCCCOc3ccc(/C=C/C(=O)Nc4ccc(Br)cc4)cc3)ccc12", "Study system": "SR leukemia", "Group": "inactive"}
{"Compound": "CCCCCCNC(=O)Oc1ccc(/C(=C(/C)c2ccc(OC)cc2)c2ccc(OCCN3CCCCCC3)cc2)cc1", "Study system": "SR leukemia", "Group": "active"}
{"Compound": "Clc1ccc2[nH]cc(-c3cncn3CCc3ccc4c(c3)OCO4)c2c1", "Study system": "SR leukemia", "Group": "inactive"}
{"Compound": "CC(C)(C)c1cc(NC(=O)Nc2ccc(-c3cn4c5c(sc4n3)CCc3c[nH]cc3-5)cc2)no1", "Study system": "SR leukemia", "Group": "active"}
{"Compound": "CN1CCN(c2ccc(Nc3nc(NCCNS(=O)(=O)c4ccc(Cl)cc4)c4sccc4n3)cc2)CC1", "Study system": "SR leukemia", "Group": "inactive"}
{"Compound": "Fc1cccc(Cl)c1/C=N/Nc1nc(N/N=C/c2c(F)cccc2Cl)nc(N2CCCCC2)n1", "Study system": "SR leukemia", "Group": "inactive"}
{"Compound": "CC1=C(C)C(=O)C(Nc2cccc(C(=O)OC(C)(C)C)c2)=C(Cl)C1=O", "Study system": "SR leukemia", "Group": "inactive"}
{"Compound": "CN1CCN(CCCCCC(=O)Nc2nc(-c3cccc(NS(=O)(=O)c4cccc5c(N(C)C)cccc45)c3)cs2)CC1", "Study system": "SR leukemia", "Group": "active"}

Please let me know the test result on file for `COc1ccc(-c2c(C(N)=O)c(N)n(Cc3nc4ccccc4[nH]3)c(=O)c2C#N)c(OC)c1` .
inactive

Which result was noted for this compound in the test: `O=C(CSc1nc2ccccc2c(=O)n1-c1ccc(Cl)cc1)N/N=C/c1ccc(Oc2ccc(Cl)cc2)cc1`
inactive

Outcome? `CCOC(=O)c1c(NC(=O)c2ccc(C(F)(F)F)cc2)sc2c(CN3CCN(C)CC3)c(O)ccc12`
active
